Test system: K562
Assay: NCI tumour cell line growth inhibition, 48 h
The source made the active and inactive calls. Rule as the data show it: active = GI50 up to about 1.1 µM and inactive = higher.
Each entry below carries its recorded GI50.
quantity name: GI50

| compound | value observed |
| --- | --- |
| COc1c2cc([N+](=O)[O-])cc1CNC(=O)CN1CCOCCOCCN(CCOCCOCC1)CC(=O)NC2 | > 100 µM (inactive) |
| CS(=O)(=O)OCCn1c(=O)n(CCOS(C)(=O)=O)c(=O)n(CCOS(C)(=O)=O)c1=O | > 100 µM (inactive) |
| O=C(NCCN1CCOCC1)c1ccc2cc(C(=O)N3CC(CCl)c4ccc([N+](=O)[O-])cc43)[nH]c2c1 (stereo not given) | 19.4 µM (inactive) |
| Cn1c(=O)c2ccccc2[n+]2c(-c3cccc([N+](=O)[O-])c3)csc12 | 36.7 µM (inactive) |
| NC(CSc1nc2ccccn2c1[N+](=O)[O-])C(=O)O (stereo not given) | > 100 µM (inactive) |
| Cn1cnc(S[C@H]2[C@H]3C(=O)C=C4S[C@H]5C[C@]42C2=C(N5)C(=O)c4[nH]cc5c4C2=[N+]3CC5)c1C[C@H](N)C(=O)O | 17.3 µM (inactive) |
| Cc1ccc2ccccc2c1NC1=NCCO1 | 56.9 µM (inactive) |
| O=C(O)c1ccc(Nc2cnc3cc(C(F)(F)F)ccc3n2)cc1 | 29.5 µM (inactive) |
| C[C@H]1CC[C@H](NC(=O)N(CCCl)N=O)CC1 | 34.3 µM (inactive) |
| CCOC(=O)c1c(NC(=O)c2cccs2)sc2c1CCC2 | > 100 µM (inactive) |
| C=CC[C@H]1[C@H](O[Si](C)(C)C(C)(C)C)C=CC(=O)[C@@H]1CC(=O)N(Cc1ccccc1)Cc1ccccc1 | 4.69 µM (inactive) |
| O=C1CCCC2(c3ccccc3)Nc3ccccc3N12 (stereo not given) | 82.6 µM (inactive) |
| CC(C)(C)OC(=O)N/N=C(/N)Cc1ccccc1 | > 100 µM (inactive) |
| CC(=O)Oc1ccc(C2SCc3nc4ccccc4n32)cc1 (stereo not given) | 7.23 µM (inactive) |
| COC(=O)C1(c2cc3ccccc3n2S(=O)(=O)c2ccccc2)CC2C=CC1NC2 (stereo not given) | 1.77 µM (inactive) |
| CCCCCCCCCCCCCCCCCc1nnc(N)o1 | > 100 µM (inactive) |
| CCOC(=O)/C=C/CCC(C)(C)COC(C)=O | > 10 µM (inactive) |
| CC(=O)NC(CCCNC(=O)OCc1ccccc1)C(=O)O (stereo not given) | > 100 µM (inactive) |
| Cc1cc(O)nc(NNC(C#N)c2ccccc2O)n1 (stereo not given) | 41.7 µM (inactive) |
| CCN1CCC(O)(c2ccc(Cl)cc2)C(C(=O)c2ccc(Cl)cc2)C1 (stereo not given) | > 100 µM (inactive) |

====

Tested on: CCRF-CEM
Test: NCI tumour cell line growth inhibition, 48 h
Activity calls are given as the source filed them. No stated cut-off is given here; in the data, active = GI50 up to about 1.1 µM and inactive = higher.
Outcome codes: TRUE for active, FALSE for inactive

| molecule | class label |
| --- | --- |
| N#CCc1nc(C#N)c(N)o1 | FALSE |
| CN(C)c1cccc2c(S(=O)(=O)NCCCNCCN)cccc12 | FALSE |
| C/C=C/c1cc2c(cc1O)CC[C@@H]1[C@@H]2CC[C@]2(C)[C@@H](O)CC[C@@H]12 | TRUE |
| Nc1ncn(C2OC(COP(=O)(O)O)C(O)C2O)c(=O)n1 (centres undefined) | FALSE |

====

Tested on: SNB-19
Experiment: NCI tumour cell line growth inhibition, 48 h
The source made the active and inactive calls. Rule as the data show it: active = GI50 up to about 1.1 µM and inactive = higher.
Labels: yes for active, no for inactive

| molecule | target or system | class label |
| --- | --- | --- |
| O=C(O)CC(CC(=O)O)n1cccc1 | SNB-19 | no |
| Cc1ccc(C2(O)CS/C(=N\C34CC5CC(CC(C5)C3)C4)N2C(P(=O)(O)O)P(=O)(O)O)cc1 (stereo not given) | SNB-19 | no |
| COc1ccc(C2N3CCCCC3[C@@H]3c4[nH]c5ccccc5c4CCN23)c(OC)c1 (stereo not given in full) | SNB-19 | no |
| O=c1[nH]c2cc3[nH]c4ncccc4c(=O)c3cc2[nH]1 | SNB-19 | no |
| CC1(O)CCC2(C#N)CCC1C2O (stereo not given) | SNB-19 | no |
| O=C(/C=C/c1c(O)ccc2ccccc12)c1ccc2ccccc2c1 | SNB-19 | no |
| CCCCCNC(=O)c1c(O)[nH]c(=S)[nH]c1=O | SNB-19 | no |
| COc1ccc(-c2cc(=O)c3c(O)cc(O)cc3o2)c(OC)c1OC | SNB-19 | no |
| CCOc1ccc(/C=C\c2cc(OC)c(OC)c(OC)c2)cc1 | SNB-19 | yes |
| S=P(N1CC1)(N1CC1)N1CC1 | SNB-19 | no |
| COC(=O)C12CC3CC(C1)CC(C(=O)OC)(C3)C2 | SNB-19 | no |
| c1ccc2sc(C3(N4CCCCCC4)CCCCC3)cc2c1 | SNB-19 | no |
| CCC[S+]([O-])c1nc(COC(=O)NC)c(COC(=O)NC)n1C (stereo not given) | SNB-19 | no |
| O=C1NC2C(=O)N(Cc3ccccc3)C(=O)C2N1 (stereo not given) | SNB-19 | no |
| Cn1c(=O)c2ccccc2[n+]2c(-c3cccc([N+](=O)[O-])c3)csc12 | SNB-19 | no |
| CN1CNc2nc(N)n(C)c(=O)c2C1 | SNB-19 | no |
| CC1(O)CCn2c(=O)c3cc4ccccc4cc3c(=O)n2C1O (stereo not given) | SNB-19 | no |
| O=C(/C=C(\O)C(=O)O)/C=C(\O)c1ccccc1Cl | SNB-19 | no |
| CCCCCC/C=C\CCCCCCCCCc1cccc(O)c1C(=O)O | SNB-19 | no |
| CO[C@@]12C[C@@H](C)[C@]34O[C@H]3C[C@]3(C)O[C@]43CC1=C(C)C(=O)O2 | SNB-19 | no |
| CC(=O)C1=C(C)N(c2ccc(C)cc2)C2(O)C=CC(O)=C3C(=O)c4ccccc4C(=O)C312 (stereo not given) | SNB-19 | no |
| COc1cc(Cn2c3c(c4c(C(=O)NCCN(C)C)c(O)ccc42)C(=O)c2ccccc2C3=O)cc(OC)c1 | SNB-19 | no |
| Nc1nccc2c1ncn2[C@H]1C[C@H](O)[C@@H](CO)O1 | SNB-19 | no |
| CN(C)CCNS(=O)(=O)N(C)C | SNB-19 | no |
| C1=CC2CCC1CN2CCC1CNc2ccccc21 (stereo not given) | SNB-19 | no |

====

Tested on: CCRF-CEM
Assay: NCI tumour cell line growth inhibition, 48 h
Active and inactive are the calls of the source. Cut-off read from the data, not from the text of the source: active = GI50 up to about 1.1 µM and inactive = higher.
Outcomes: active, inactive

| compound | class label |
| --- | --- |
| O=C(O)C1C2C=CC(O2)C1C(=O)Nc1ccccc1 (stereo not given) | inactive |
| Cc1ccc2ccccc2c1NC1=NCCO1 | inactive |
| C=C(CC)C(=O)c1ccc(OCC(=O)O)c(Cl)c1Cl [ETHACRYNIC ACID] | inactive |
| CC(C)CCCC(C)[C@H]1CC[C@H]2n3c(nnc3-c3ccccc3)CCC[C@]12C (stereo not given in full) | inactive |
| CCOC(=O)CCC(NC(=O)c1ccc(Nc2nc3ccc(C(F)(F)F)cc3nc2-c2ccccc2)cc1)C(=O)OCC (stereo not given) | inactive |
| CC(C)(C)OC(=O)N/N=C(/N)Cc1ccccc1 | inactive |
| Cc1ccc(C)c(NC(=O)CC2SC(Nc3ccccc3Cl)=NC2=O)c1 (stereo not given) | inactive |
| CS(=O)(=O)c1ccc(COP(N)(=O)N(CCCl)CCCl)cc1 (stereo not given) | inactive |
| Nc1nccc2c1ncn2[C@H]1C[C@H](O)[C@@H](CO)O1 | inactive |
| c1ccc(CC2COC(c3cccs3)=N2)cc1 (stereo not given) | inactive |
| O=C(O)c1c2c(cc3c1CC1(Cc4ccccc4C1=O)C3)CCC2 (stereo not given) | inactive |
| CN1N=C(Nc2ccccc2)Sc2c1cnn(-c1ccccc1)c2=O | inactive |
| CC(=O)n1nc(-c2[nH]c(C)c(-c3nn(C(C)=O)c(=S)o3)c2C)oc1=S | inactive |
| COc1ccnc2c1C(=O)c1nc3ccccc3c3ccnc-2c13 | active |
| Cc1ccc(S(=O)(=O)C2=Cc3ccc(C(F)(F)F)cc3C2(O)c2cccc(C(F)(F)F)c2)cc1 (stereo not given) | inactive |

====

System: SK-MEL-5
Experiment: NCI tumour cell line growth inhibition, 48 h
Activity calls are given as the source filed them. Cut-off read from the data, not from the text of the source: active = GI50 up to about 1.1 µM and inactive = higher.
Outcomes: TRUE for active, FALSE for inactive

| compound | class label |
| --- | --- |
| S=C(N/N=C\C(=N/NC(=S)N1CCCCC1)c1ccccc1)N1CCCCC1 | FALSE |
| OCC1OC(OCC(O)C(O)C(O)C(/C=N/Nc2ccccc2)=N/Nc2ccccc2)C(O)C(O)C1O (stereo not drawn) | FALSE |
| Cc1cc(S(=O)(=O)Nc2nc(N)n(C)n2)c(S)cc1Cl | FALSE |
| O=C1c2ccccc2C(=O)c2c(OCCOCCO)cccc21 | FALSE |
| Cn1c2ncccc2n2c(=O)cc(O)cc12 | FALSE |
| CCOc1ccc(/C=C\c2cc(OC)c(OC)c(OC)c2)cc1 | TRUE |
| CC(=O)OCC(Br)C1(C)CCC(C(C)(C)Br)O1 (stereo not drawn) | FALSE |
| CCOc1cc(C2CC(c3ccc(NS(=O)(=O)c4cc([N+](=O)[O-])ccc4C)cc3)=NN2c2ccc([N+](=O)[O-])cc2[N+](=O)[O-])ccc1O (stereo not drawn) | FALSE |
| Cc1c2ccncc2c(C)c2c1[nH]c1ccc(OC(C)C)cc12 | FALSE |
| COC12OC3CC4(C)C(=CC3OC(OC(C)C1O)C2O)CCC1C4CCC2(C)C(c3ccc(=O)oc3)CCC12O (stereo not drawn) | TRUE |
| CCCC1=C(CC)C(C(=O)Nc2c(C)cccc2C)=NC(S)N1 (stereo not drawn) | FALSE |
| CSc1ccc2c(cc1=O)C(NC(=O)c1ccc(C#N)cc1)CCc1cc(O)c(O)c(O)c1-2 (stereo not drawn) | FALSE |
| Nc1c(C(=O)NC23CC4CC(CC(C4)C2)C3)[n+]([O-])c2ccccc2[n+]1[O-] | FALSE |
| Cc1cc(C)c(S(=O)(=O)N[C@@H](/C=C(\Br)CO)C(C)C)c(C)c1 | FALSE |
| COC1CC(OC2C(C)OC(OC3C(C)OC(OC4C(C)OC(O[C@H]5CC[C@@]6(C)C(=CC[C@]7(O)[C@@H]6C[C@@H](OC(C)=O)[C@@]6(C)[C@]7(O)CC[C@@]6(O)C(C)=O)C5)CC4OC)CC3OC)CC2OC)OC(C)C1O (stereo partly drawn) | FALSE |
| COc1ccc(C(c2ccccc2)N2C(=O)CCC2C(=O)O)cc1OC (stereo not drawn) | FALSE |
| COc1ccc(OC)c(CC2CCc3nc(N)nc(N)c3C2)c1 (stereo not drawn) | TRUE |
| COC(=O)c1ccccc1/N=C/c1ccc(N(CCC#N)S(=O)(=O)c2ccccc2)cc1 | FALSE |
| Cc1ccc(NC(=O)CC(=O)n2nc(-c3ccccc3)c(/N=N\c3ccccc3[N+](=O)[O-])c2-c2ccccc2)cc1 | FALSE |
| O=C1OC(c2ccccc2)=N/C1=C\c1cc(Cl)ccc1Cl | FALSE |
| CNC(=O)CNC(=O)CCC(=O)OC | FALSE |
| COC(=O)/C=C/N1CC1 | FALSE |
| COc1ccc(OC)c(CCc2ccccc2CC(=O)O)c1 | FALSE |
| O=Cc1cc2c(cc1-c1c(C=O)ccc3c1OCO3)OCO2 | FALSE |
| COc1cc(CN2CCCCC2)cc2cc(C(=O)O)c(=O)oc12 | FALSE |
| O=C(O)C1C2C=CC(O2)C1C(=O)Nc1ccccc1 (stereo not drawn) | FALSE |
| COC(=O)/C=C(\C)CC/C=C(\C)CCC(O)C(C)(C)O (stereo not drawn) | FALSE |
| CCC[S+]([O-])c1nc(COC(=O)NC)c(COC(=O)NC)n1C (stereo not drawn) | FALSE |
| FC(F)(F)c1ccc(/N=C/C=C(/Nc2ccc(C(F)(F)F)cc2)c2ccc(Cl)cc2)cc1 | FALSE |
| COc1ccc(OC)c2c1C(=O)C(Cl)=C(N1CCN(CCOCCO)CC1)C2=O | FALSE |
| COC(=O)C1=COC2OC3CC1C2C(C)O3 (stereo not drawn) | FALSE |
| CC1=Nc2c(C#N)ncn2N=C(C)C1 | FALSE |
| CCOC(=O)c1sc2c(c1OC(=O)c1ccco1)c(=O)n(-c1ccccc1)c(=S)n2-c1ccccc1 | FALSE |
